Assignment: determine reported MCF-7 CTG (IC50 M) for the given binders.
# systemName: T1, human B7H3 on cancer cell lines (human, UniProt Q5ZPR3 29-534)
# T1 sequence (looked up): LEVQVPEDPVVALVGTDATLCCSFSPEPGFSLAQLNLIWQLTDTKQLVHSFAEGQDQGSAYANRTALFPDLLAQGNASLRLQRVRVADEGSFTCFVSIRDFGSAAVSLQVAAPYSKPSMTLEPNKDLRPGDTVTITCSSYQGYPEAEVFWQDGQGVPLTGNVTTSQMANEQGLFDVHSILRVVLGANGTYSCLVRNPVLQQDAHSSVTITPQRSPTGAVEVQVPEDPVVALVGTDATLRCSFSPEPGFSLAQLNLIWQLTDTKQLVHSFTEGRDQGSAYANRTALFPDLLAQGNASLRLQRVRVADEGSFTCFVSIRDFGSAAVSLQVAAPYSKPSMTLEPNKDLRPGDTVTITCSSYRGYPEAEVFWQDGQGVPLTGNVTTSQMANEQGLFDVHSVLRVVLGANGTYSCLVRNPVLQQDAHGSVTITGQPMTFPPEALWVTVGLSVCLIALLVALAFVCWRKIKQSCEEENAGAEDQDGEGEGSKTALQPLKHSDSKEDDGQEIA
# testProtocol: cell-based or functional assay
Give just the numeric value; nM need not be written.

Query block: Any idea what MCF-7 CTG (IC50 M) was measured for ADC Example 208-6515 (antibody, human IgG1, lambda, V domains shown, drug-linker from Intermediate F104 on Cys, sites not stated) VH: EVQLLESGGGLVQPGGSLRLSCAASGFTFSSYGMHWVRQVPGKGLEWVSAISGSGGTTYYADSVKGRFTISRDNSKNTLYLQMNSLRAEDTAVYYCARGGYHFLFDYWGQGTLVTVSS VL: QSVLTQPPSASGTPGQRVTISCSGSSSNIGSNTVNWYQQLPGTAPKLLIYRNDQRLLGVPDRFSGSKSGTSASLAISGLRSEDEADYYCQSYDSSLSGWVFGGGTKLTVLG ?
Result block: 0.338

Query block: Any idea what MCF-7 CTG (IC50 M) was measured for ADC Example 194-6502 (antibody, human IgG1, lambda, V domains shown, drug-linker from Intermediate F194 on Lys, sites not stated) VH: EVQLLESGGGLVQPGGSLRLSCAASGFTFSTYGMHWVRQAPGKGLEWVSAISGSGGSTYYADSVKGRFTISRDNSKNTLYLQMNSLRAEDTAVYYCTRGYYYYGMDVWGQGTLVTVSS VL: QSVLTQPPSASGTPGQRVTISCSGGSSNIGSNPVNWYQQLPGTAPKLLIYGNSKRPSGVPDRFSGSKSGTSASLAISGLRSEDEADYYCQSYDSSLSGWVFGGGTKLTVLG ?
Result block: 1

Query block: Any idea what MCF-7 CTG (IC50 M) was measured for ADC Example 208-6499 (antibody, human IgG1, lambda, V domains shown, drug-linker from Intermediate F104 on Cys, sites not stated) VH: EVQLLESGGGLVQPGGSLRLSCAASGFTFRDFYMNWIRQAPGKGLEWVSSISASGKYTYYADSVKGRFTISRDNSKNTLYLQMNSLRAEDTAVYYCAREWGYCTNDVCRNWFDPWGQGTLVTVSS VL: QSVLTQPPSASGTPGQRVTISCSGGYSNVGGNNVNWYQQLPGTAPKLLIYGNSNRPSGVPDRFSGSKSGTSASLAISGLRSEDEADYYCQSYDSSLSGSVFGGGTKLTVLG ?
Result block: 0.135

Query block: Any idea what MCF-7 CTG (IC50 M) was measured for ADC Example 208-6501 (antibody, human IgG1, lambda, V domains shown, drug-linker from Intermediate F104 on Cys, sites not stated) VH: EVQLLESGGGLVQPGGSLRLSCAASGFTFSSYGMHWVRQAPGKGLEWVSAISGSGGSTYYADSVKGRFTISRDNSKNTLYLQMNSLRAEDTAVYYCARGSNYLGMDVWGQGTLVTVSS VL: QSVLTQPPSASGTPGQRVTISCSGSSSNIGRNIVNWYQQLPGTAPKLLIYRSNQRPSGVPDRFSGSKSGTSASLAISGLRSEDEADYYCQTWGTGWVFGGGTKLTVLG ?
Result block: 0.161
